Listing of recorded TGI by entry.
# Tested on: OVCAR-8 ovarian
# run description: NCI tumour cell line growth inhibition, 48 h

Q: Quick one: give measured TGI for "O=[N+]([O-])c1cc2c(c([N+](=O)[O-])c1)Nc1ccccc1O2"
A: > 100 µM

Q: Quick one: give measured TGI for "Cn1c(=O)c2[nH]c(CCCCc3nc4c([nH]3)c(=O)n(C)c(=S)n4C)nc2n(C)c1=S"
A: > 100 µM

Q: Quick one: give measured TGI for "Cn1sc2ccccc2c1=S"
A: 22.3 µM

New cases:
Q: Quick one: give measured TGI for O=C1OC(CS(=O)(=O)c2ccccc2)CC1O (stereo unspecified)
A: > 100 µM

Q: Quick one: give measured TGI for "O=C(Cc1ccccc1)NS(=O)(=O)c1ccccc1"
A: > 100 µM

Q: Quick one: give measured TGI for COc1cccc(C2c3cc4c(cc3OC(N3CCCCC3)C2C)OCO4)c1OC (stereo unspecified)
A: > 100 µM
